Measured pIC50 values are reported for all entries that follow.
molecular target: VIM-1 (Pseudomonas aeruginosa (strain ATCC 15692 / DSM 22644 / CIP 104116 / JCM 14847 / LMG 12228 / 1C / PRS 101 / PAO1), UniProt A0A0F7KYQ8); assay: Enzyme activity: determination of IC50, fluorescence assay with CCF2-FA substrate (VIM-1); format: biochemical; settings: VIM-1 enzyme, CCF2-FA fluorescence assay; read-out: VIM-1 IC50
pIC50: −log10 of the molar value.
metricName: pIC50

INSERT INTO results (compound, experimentalvalue) VALUES
  ('NC(=O)c1ccc2cc(-c3cccc(S(N)(=O)=O)c3-c3nn[nH]n3)ccc2n1', 8.01),
  ('NS(=O)(=O)c1c(C(F)(F)F)ccc(-c2ccc(C3CCNC3)cc2)c1-c1nn[nH]n1 (centres unmarked)', 9.30),
  ('NS(=O)(=O)c1cccc(-c2ccc(-c3noc(C4CCNC4)n3)cc2)c1-c1nn[nH]n1 (centres unmarked)', 6.71),
  ('Nc1n[nH]c2ccc(-c3ccc(C(F)(F)F)c(S(N)(=O)=O)c3-c3nnn[nH]3)cc12', 9.58),
  ('CN(C)CCCNCc1ccc(-c2cccc(S(N)(=O)=O)c2-c2nnn[nH]2)cc1', 6.07),
  ('CN(C)[C@@H]1CCN(Cc2ccc(-c3cccc(S(N)(=O)=O)c3-c3nnn[nH]3)cc2)C1', 6.07),
  ('NS(=O)(=O)c1cccc(-c2ccnc3ncccc23)c1-c1nnn[nH]1', 8.76),
  ('NCc1ccc(-c2cccc(S(N)(=O)=O)c2-c2nnn[nH]2)cn1', 6.52),
  ('Nc1ccc(-c2ccc(Br)c(S(N)(=O)=O)c2-c2nn[nH]n2)cn1', 8.36),
  ('NS(=O)(=O)c1cccc(-c2ccc(CN3CCOCC3)cc2)c1-c1nnn[nH]1', 6.10),
  ('CN(C)C1CCC(NCc2ccc(-c3cccc(S(N)(=O)=O)c3-c3nnn[nH]3)cc2)CC1 (centres unmarked)', 6.06),
  ('NS(=O)(=O)c1c(CC(F)(F)F)ccc(-c2ccc(C3CCNCC3)cc2)c1-c1nn[nH]n1', 8.67),
  ('NS(=O)(=O)c1c(Br)ccc(-c2ccnc3ccccc23)c1-c1nn[nH]n1', 9.16),
  ('COc1ccc(S(N)(=O)=O)c(-c2nn[nH]n2)c1', 3.77),
  ('CN(C)CCCCNCc1ccc(-c2cccc(S(N)(=O)=O)c2-c2nnn[nH]2)cc1', 6.19),
  ('NS(=O)(=O)c1c(CCC(F)(F)F)ccc(-c2ccc(C3CCNCC3)cc2)c1-c1nn[nH]n1', 8.85),
  ('CS(=O)(=O)Nc1ccc(-c2ccc(C(F)(F)F)c(S(N)(=O)=O)c2-c2nn[nH]n2)cc1', 9.20);
